Molecular target: K-Ras WT (Homo sapiens, UniProt P01116)
Sequence (P01116 1-188 isoform P01116-2): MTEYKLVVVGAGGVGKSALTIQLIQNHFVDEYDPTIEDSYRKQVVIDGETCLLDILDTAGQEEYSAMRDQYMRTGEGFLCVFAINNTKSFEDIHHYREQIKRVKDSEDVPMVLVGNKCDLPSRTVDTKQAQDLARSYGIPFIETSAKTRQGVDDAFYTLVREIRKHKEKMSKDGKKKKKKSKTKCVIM
Test: HTRF resonance energy transfer assay, K-Ras WT / SOS1 interaction
Details: HTRF assay of Example 5; read-out: IC50 against K-Ras WT
Text: This assay can be also used to assess a selective inhibition or reduction of signaling output of a mutant Ras protein relative to a wildtype, or relative to a different mutant Ras protein. For example, the equilibrium interaction of wildtype Kras or K-Ras mutant (e.g., wildtype or a mutant thereof) with SOS1 (e.g., hSOS1) can be assessed as a proxy or an indication for a subject compound's ability to bind and inhibit Ras protein. […]
pIC50: −log10 of the molar value.
# pIC50 per record follows

Some solved cases for reference:
CC(O)C1COc2c(Cl)c(-c3ccc(F)c4sc(N)c(C#N)c34)c(F)c3nc(OC[C@@]45CCCN4C[C@H](F)C5)nc(c23)N1CC1CCCNC1 (stereo partly drawn)
> 7.00
C[C@H](O)[C@H]1COc2c(Cl)c(-c3ccc(F)c4sc(N)c(C#N)c34)c(F)c3nc(OC[C@@]45CCCN4C[C@H](F)C5)nc(c23)N1CCC(F)F
> 7.00

Now for another entry.
Ask | Give pIC50; test system K-Ras WT (Homo sapiens, UniProt P01116); compound COCC(=O)N1CCC(N2CCOc3c(Cl)c(-c4ccc(F)c5sc(N)c(C#N)c45)c(F)c4nc(OC[C@@]56CCCN5C[C@H](F)C6)nc2c34)C1 (stereo partly drawn)
Reply | > 7.00
